system: Gal(b1-3)[Neu5Ac(a2-6)]GlcNAc(b1-4)Gal(b1-4)Glc
assay.method.text: glycan array binding signal (z-score within array); higher = stronger binding
reported.conditions: glycan notation: IUPAC condensed, linker removed
This is one part of a sample in which the strongest signals are shown more often than they occur.
measured.property: glycan array binding signal (z-score)

Qu. Dear colleague, I am looking for the recorded glycan array binding signal (z-score) of the following binder: Threefoil (Haloarcula marismortui) (protein) GSSHHHHHHHHHHSSGLVPRGSHMGDGYYKLVARHSGKALDVENASTSDGANVIQYSYSGGDNQQWRLVDLGDGYYKLVARHSGKALDVENASTSDGANVIQYSYSGGDNQQWRLVDLGDGYYKLVARHSGKALDVENASTSDGANVIQYSYSGGDNQQWRLVDL
Ans. -0.13

Qu. Dear colleague, I am looking for the recorded glycan array binding signal (z-score) of the following binder: Mermaid1 (Stilbonema majum) (protein) MGSSHHHHHHSSGLVPRGSHMAASGWLRSPQGTVVKLYRRSLSWSKADEFCKDVDGRLVVDRTADMHLFLIKNVLKEKKSRVWVGLRRTAPHSRTWIWSDGTRQNEDDLDANLWLRDEPNDAAGEEECALFMYSPWEKAWGLNDYLCRGGCRSYQFICEKWIR
Ans. -0.953

Qu. Dear colleague, I am looking for the recorded glycan array binding signal (z-score) of the following binder: Cohesin-mDCIR (Macaca mulatta) (protein) GLDDLDAVRIKVDTVNAKPGDTVRIPVRFSGIPSKGIANCDFVYSYDPNVLEIIEIEPGDIIVDPNPDKSFDTAVYPDRKIIVFLFAEDSGTGAYAITKDGVFATIVAKVKEGAPNGLSVIKFVEVGGFANNDLVEQKTQFFDGGVNVGDTTEPATPTTPVTTPTTTDDLDAASFQKYSQLLEKMTTKDLVHTTLECVKKNMTTEETAWSCCPKNWKPFSSNCYFISTESASWQKSEKDCARMEAHLLVINTREEQDFIFQNLQEESAYFVGLSDPEGQRHWQWVDRTPYNESSTFWHPHEPSDPDERCVVLNFRKTPKRWGWNDVHCIVHQRSVCEMMKIHLHHHHHH
Ans. -0.388

Qu. Dear colleague, I am looking for the recorded glycan array binding signal (z-score) of the following binder: DCIR1 (Mus musculus), Q9QZ15 (protein) MASEITYAEVKFKNESNSLHTYSESPAAPREKPIRDLRKPGSPSLLLTSLMLLLLLLAITFLVAFIIYFQKYSQLLEEKKAAKNIMHNELNCTKSVSPMEDKVWSCCPKDWRLFGSHCYLVPTVSSSASWNKSEENCSRMGAHLVVIQSQEEQDFITGILDTHAAYFIGLWDTGHRQWQWVDQTPYEESITFWHNGEPSSGNEKCATIIYRWKTGWGWNDISCSLKQKSVCQMKKINL
Ans. 3.38

Qu. Dear colleague, I am looking for the recorded glycan array binding signal (z-score) of the following binder: GNA (Galanthus nivalis), P30617 (protein) MAKASLLILAAIFLGVITPSCLSDNILYSGETLSTGEFLNYGSFVFIMQEDCNLVLYDVDKPIWATNTGGLSRSCFLSMQTDGNLVVYNPSNKPIWASNTGGQNGNYVCILQKDRNVVIYGTDRWATGTHTGLVGIPASPPSEKYPTAGKIKLVTAK
Ans. -0.195

Qu. Dear colleague, I am looking for the recorded glycan array binding signal (z-score) of the following binder: MpAFP NterminalRI GFP (Marinomonas primoryensis) (protein) MSDNQFPFATLGNAIGFITKLDGSVTVQSIDGQERVLKLGDPIFFGETVLTGGSGSVTIAFVDGTDVVIGGDSIVEMTDEIYNTGDNEDLVADSSSEIDALQNAILAGDDPTLIQDAPAAGNTLADQQRVDVSIERNDNSAQAGFGVDTQSSLPTYGYDTDNGNGGQATEREYSAPSLSRTLNQSPLLEHHHHHH
Ans. -0.565

# credit: the supplement of paper PMC8728848
